src = ChEMBL document CHEMBL6120978

Test Description: Selectivity index, ratio of IC50 for cytotoxicity against chinese hamster V79 cells to IC50 for cytotoxicity against human PC-3 cells
Format: toxicity, cell-based
Assay Context: V79 cells versus PC-3 cells, read-out: Ratio IC50
Cut-off 0.7 on selectivity ratio, inclusive. At or above means Criterion met; below means Criterion not met.

- Smi: "CC[C@@H](C(=O)[C@@H](C)[C@@H](O)[C@H](C)[C@@H]1O[C@@H]([C@@H](CC)C(=O)OCCCCCC[P+](c2ccccc2)(c2ccccc2)c2ccccc2)CC[C@@H]1C)[C@H]1O[C@]2(C=C[C@@H](O)[C@]3(CC[C@@](C)([C@H]4CC[C@](O)(CC)[C@H](C)O4)O3)O2)[C@H](C)C[C@@H]1C.[Br-]"
  Assigned Category: "Criterion not met"
- Smi: "CC[C@@H](C(=O)[C@@H](C)[C@@H](O)[C@H](C)[C@@H]1O[C@@H]([C@@H](CC)C(=O)OCCCCCC[P+](c2ccc(OC)cc2)(c2ccc(OC)cc2)c2ccc(OC)cc2)CC[C@@H]1C)[C@H]1O[C@]2(C=C[C@@H](O)[C@]3(CC[C@@](C)([C@H]4CC[C@](O)(CC)[C@H](C)O4)O3)O2)[C@H](C)C[C@@H]1C.[Br-]"
  Assigned Category: "Criterion not met"
- Smi: "CC[C@@H](C(=O)[C@@H](C)[C@@H](O)[C@H](C)[C@@H]1O[C@@H]([C@@H](CC)C(=O)OCCCCCC[P+](c2ccc(C)cc2)(c2ccc(C)cc2)c2ccc(C)cc2)CC[C@@H]1C)[C@H]1O[C@]2(C=C[C@@H](O)[C@]3(CC[C@@](C)([C@H]4CC[C@](O)(CC)[C@H](C)O4)O3)O2)[C@H](C)C[C@@H]1C.[Br-]"
  Assigned Category: "Criterion not met"
- Smi: "CC[C@@H](C(=O)[C@@H](C)[C@@H](O)[C@H](C)[C@@H]1O[C@@H]([C@@H](CC)C(=O)OCCCC[P+](c2ccccc2)(c2ccccc2)c2ccccc2)CC[C@@H]1C)[C@H]1O[C@]2(C=C[C@@H](O)[C@]3(CC[C@@](C)([C@H]4CC[C@](O)(CC)[C@H](C)O4)O3)O2)[C@H](C)C[C@@H]1C.[Br-]"
  Assigned Category: "Criterion not met"
- Smi: "CC[C@@H](C(=O)[C@@H](C)[C@@H](O)[C@H](C)[C@@H]1O[C@@H]([C@@H](CC)C(=O)OCCCC[P+](c2ccc(C)cc2)(c2ccc(C)cc2)c2ccc(C)cc2)CC[C@@H]1C)[C@H]1O[C@]2(C=C[C@@H](O)[C@]3(CC[C@@](C)([C@H]4CC[C@](O)(CC)[C@H](C)O4)O3)O2)[C@H](C)C[C@@H]1C.[Br-]"
  Assigned Category: "Criterion met"

* * *

Tested on: Staphylococcus aureus
Test Description: Antimicrobial activity against Staphylococcus aureus ATCC 29213 incubated for 18 hrs by twofold microdilution method
Type: functional
MIC overview

- Molecule: "CC[C@@H](C(=O)[C@@H](C)[C@@H](O)[C@H](C)[C@@H]1O[C@@H]([C@@H](CC)C(=O)OCCCC[P+](c2ccccc2)(c2ccccc2)c2ccccc2)CC[C@@H]1C)[C@H]1O[C@]2(C=C[C@@H](O)[C@]3(CC[C@@](C)([C@H]4CC[C@](O)(CC)[C@H](C)O4)O3)O2)[C@H](C)C[C@@H]1C.[Br-]"
  MIC: "1 µg/mL"
- Molecule: "CC[C@@H](C(=O)[C@@H](C)[C@@H](O)[C@H](C)[C@@H]1O[C@@H]([C@@H](CC)C(=O)OCCCCCC[P+](c2ccc(OC)cc2)(c2ccc(OC)cc2)c2ccc(OC)cc2)CC[C@@H]1C)[C@H]1O[C@]2(C=C[C@@H](O)[C@]3(CC[C@@](C)([C@H]4CC[C@](O)(CC)[C@H](C)O4)O3)O2)[C@H](C)C[C@@H]1C.[Br-]"
  MIC: "8 µg/mL"
- Molecule: "CC[C@@H](C(=O)[C@@H](C)[C@@H](O)[C@H](C)[C@@H]1O[C@@H]([C@@H](CC)C(=O)OCCCCCC[P+](c2ccccc2)(c2ccccc2)c2ccc(N(C)C)cc2)CC[C@@H]1C)[C@H]1O[C@]2(C=C[C@@H](O)[C@]3(CC[C@@](C)([C@H]4CC[C@](O)(CC)[C@H](C)O4)O3)O2)[C@H](C)C[C@@H]1C.[Br-]"
  MIC: "8 µg/mL"
- Molecule: "O=C(O)c1cn(C2CC2)c2cc(N3CCNCC3)c(F)cc2c1=O [CIPROFLOXACIN]"
  MIC: "0.25 µg/mL"

* * *

Test Description: Selectivity index, ratio of IC50 for cytotoxicity against chinese hamster V79 cells to IC50 for cytotoxicity against human SW480 cells
Type: toxicity, cell-based
Assay Context: V79 cells versus SW480 cells, read-out: Ratio IC50
This listing pairs compounds with measured selectivity ratio.

- Smi: "CC[C@@H](C(=O)[C@@H](C)[C@@H](O)[C@H](C)[C@@H]1O[C@@H]([C@@H](CC)C(=O)OCCCCCC[P+](c2ccccc2)(c2ccccc2)c2ccc(N(C)C)cc2)CC[C@@H]1C)[C@H]1O[C@]2(C=C[C@@H](O)[C@]3(CC[C@@](C)([C@H]4CC[C@](O)(CC)[C@H](C)O4)O3)O2)[C@H](C)C[C@@H]1C.[Br-]"
  selectivity ratio: 1
- Smi: "CC[C@@H](C(=O)[C@@H](C)[C@@H](O)[C@H](C)[C@@H]1O[C@@H]([C@@H](CC)C(=O)OCCCC[P+](c2ccccc2OC)(c2ccccc2OC)c2ccccc2OC)CC[C@@H]1C)[C@H]1O[C@]2(C=C[C@@H](O)[C@]3(CC[C@@](C)([C@H]4CC[C@](O)(CC)[C@H](C)O4)O3)O2)[C@H](C)C[C@@H]1C.[Br-]"
  selectivity ratio: 1.1
- Smi: "CC[C@@H](C(=O)[C@@H](C)[C@@H](O)[C@H](C)[C@@H]1O[C@@H]([C@@H](CC)C(=O)OCc2ccccc2)CC[C@@H]1C)[C@H]1O[C@]2(C=C[C@@H](O)[C@]3(CC[C@@](C)([C@H]4CC[C@](O)(CC)[C@H](C)O4)O3)O2)[C@H](C)C[C@@H]1C"
  selectivity ratio: 1.7
- Smi: "CC[C@@H](C(=O)[C@@H](C)[C@@H](O)[C@H](C)[C@@H]1O[C@@H]([C@@H](CC)C(=O)OCCCCCC[P+](c2ccccc2)(c2ccccc2)c2ccccc2)CC[C@@H]1C)[C@H]1O[C@]2(C=C[C@@H](O)[C@]3(CC[C@@](C)([C@H]4CC[C@](O)(CC)[C@H](C)O4)O3)O2)[C@H](C)C[C@@H]1C.[Br-]"
  selectivity ratio: 0.9

* * *

Tested on: Staphylococcus epidermidis
Test Description: Antimicrobial activity against Staphylococcus epidermidis ATCC 35984 incubated for 18 hrs by twofold microdilution method
Assay type: functional
Measurement Kind: MIC (µg/mL)

- Smi: "CCCC[P+](CCCC)(CCCC)CCCCCCOC(=O)[C@H](CC)[C@H]1CC[C@H](C)[C@H]([C@@H](C)[C@H](O)[C@H](C)C(=O)[C@H](CC)[C@H]2O[C@]3(C=C[C@@H](O)[C@]4(CC[C@@](C)([C@H]5CC[C@](O)(CC)[C@H](C)O5)O4)O3)[C@H](C)C[C@@H]2C)O1.[Br-]"
  Value Operator: "="
  Recorded Number: 2
- Smi: "CC[C@@H](C(=O)[C@@H](C)[C@@H](O)[C@H](C)[C@@H]1O[C@@H]([C@@H](CC)C(=O)OCc2ccccc2)CC[C@@H]1C)[C@H]1O[C@]2(C=C[C@@H](O)[C@]3(CC[C@@](C)([C@H]4CC[C@](O)(CC)[C@H](C)O4)O3)O2)[C@H](C)C[C@@H]1C"
  Value Operator: ">"
  Recorded Number: 256
- Smi: "CC[C@@H](C(=O)[C@@H](C)[C@@H](O)[C@H](C)[C@@H]1O[C@@H]([C@@H](CC)C(=O)OCCCCCC[P+](c2ccccc2)(c2ccccc2)c2ccc(N(C)C)cc2)CC[C@@H]1C)[C@H]1O[C@]2(C=C[C@@H](O)[C@]3(CC[C@@](C)([C@H]4CC[C@](O)(CC)[C@H](C)O4)O3)O2)[C@H](C)C[C@@H]1C.[Br-]"
  Value Operator: "="
  Recorded Number: 8
- Smi: "CC[C@@H](C(=O)[C@@H](C)[C@@H](O)[C@H](C)[C@@H]1O[C@@H]([C@@H](CC)C(=O)OCCCC[P+](c2ccc(OC)cc2)(c2ccc(OC)cc2)c2ccc(OC)cc2)CC[C@@H]1C)[C@H]1O[C@]2(C=C[C@@H](O)[C@]3(CC[C@@](C)([C@H]4CC[C@](O)(CC)[C@H](C)O4)O3)O2)[C@H](C)C[C@@H]1C.[Br-]"
  Value Operator: "="
  Recorded Number: 8
- Smi: "O=C(O)c1cn(C2CC2)c2cc(N3CCNCC3)c(F)cc2c1=O"
  Value Operator: "="
  Recorded Number: 0.125
- Smi: "CC[C@@H](C(=O)[C@@H](C)[C@@H](O)[C@H](C)[C@@H]1O[C@@H]([C@@H](CC)C(=O)OCCCCCC[P+](c2ccc(C)cc2)(c2ccc(C)cc2)c2ccc(C)cc2)CC[C@@H]1C)[C@H]1O[C@]2(C=C[C@@H](O)[C@]3(CC[C@@](C)([C@H]4CC[C@](O)(CC)[C@H](C)O4)O3)O2)[C@H](C)C[C@@H]1C.[Br-]"
  Value Operator: "="
  Recorded Number: 16
- Smi: "CC[C@@H](C(=O)[C@@H](C)[C@@H](O)[C@H](C)[C@@H]1O[C@@H]([C@@H](CC)C(=O)O)CC[C@@H]1C)[C@H]1O[C@]2(C=C[C@@H](O)[C@]3(CC[C@@](C)([C@H]4CC[C@](O)(CC)[C@H](C)O4)O3)O2)[C@H](C)C[C@@H]1C"
  Value Operator: "="
  Recorded Number: 1
